protease stability score listing for selected sequences.
# experiment: protease stability score; higher = more stable; yeast display proteolysis, trypsin and chymotrypsin;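 note: log10 excess protease needed over predicted unfolded state with 0 meaning unfolded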
reported-property: protease stability score

[[record]]
residues = "DDEAQRVFEDWLENVKKGDEDHAVQLADPNADFVIGDKTYHGREQLKREIKHERDRLRREMRIQDFDDQPPRIDIKFEFTNQHNGKPSSDTAVMKLQMHNGDVQALVVTQHR"
test_value = -0.302

[[record]]
residues = "DEELLHRIRDFLRAVRHGDSDHLRQLMDEDVKMTVGDHEIHGRERILDKIKQTRDEQRIHIQVRSMHADGDKATVHADIENEHNGQPQTAKLRMTVQVENGRIKQIDVEIKQ"
test_value = 0.904

[[record]]
residues = "DERDAKKRIKDMIEALHTGDPDEFKRNLPPNARLEYGDKRVHGREQLAREVEKERKRFDHVEVKHIKVDNGRVHVELDLNVNGRTETRELVFNVSNGRVEEVHIRVP"
test_value = -0.186

[[record]]
residues = "DDHVNREINRLMEKNDEQKFVDQADENASMDVGNKRYHGRDAAIKAARAWRKAADHVRIKRFEYSNGKIIIVVVVQFNGHRYDVTIDIVHHNGKVKEFVVRFTDPEQERDFRDWLG"
test_value = 0.509

[[record]]
residues = "DEEAQKHIQQMFHAIDHGNPEKVKELADPNVNIEVGDKRYHGMDTWVREIEKTKKEMRVSVEHVKVDDRNGRAKIDVIMNNEVNGKPVRDRKTATADVHNGKIKSLQYQFSEDQKKKDEG"
test_value = -0.472

[[record]]
residues = "DESLMKVAQEVHDAWNQGDPTKLQENFDKDAEIQVGDKQIHGREDATRELDRKKKQQRFEVQVTSMTAQNGDVKVDARFHFKHNGRPDERRFKLTINAENGRIQEASIDQTK"
test_value = -0.151

